Source: paper PMC9870012

Target: MMP13 (Homo sapiens)
Assay: Off-target metalloprotease inhibition, MMP13
Type: biochemical
Details: read-out: Residual activity MMP13
property measured: remaining activity at 10 µM (%)

> print(dat)
                                    molecule  data.value
 1  O=C(CCc1c(-c2ccccc2)nn(Cc2ccc(Cl)c(O)c2F)c1-c1ccccc1)NO          98
 2  O=C(Cc1c(-c2ccccc2)nn(Cc2ccc3c(c2)OCO3)c1-c1ccccc1)NO [21f]          78
 3  COc1cccc(-c2n[nH]c(-c3ccccc3)c2CC(=O)NO)c1 [14d]          85
 4  O=C(Cc1c(-c2ccc3c(c2)OCO3)n[nH]c1-c1ccccc1)NO [14f]          71
 5  O=C(Cc1c(-c2ccccc2)nn(Cc2ccc(Cl)c(O)c2F)c1-c1ccccc1)NO [21i]          84
 6  O=C(Cc1c(-c2cccc(C(=O)O)c2)n[nH]c1-c1cc(F)c(O)c(Cl)c1)NO [16j]         105
 7  O=C(Cc1c(-c2cc(F)c(O)c(Cl)c2)n[nH]c1-c1ccccc1)NO [14m]          88
 8  O=C(Cc1c(-c2ccccc2)nn(Cc2ccc(C(=O)O)cc2)c1-c1ccccc1)NO [21h]          86
 9  COc1ccc(-c2n[nH]c(-c3ccccc3)c2CC(=O)NO)cc1OC [14g]         101
10  O=C(Cc1c(-c2ccccc2)nn(Cc2cccc(C(=O)O)c2)c1-c1ccccc1)NO [21g]          83
